# credit: patent US20230151049A1

# experiment: in vivo
# assay-conditions: male, Wistar Han, rat, in vivo; day 70; single IM 63 mg/kg; read-out: Mean concentration of Example 26A
endpoint: concentration at 70 day (ng/mL)
Write it as a number; the unit ng/mL goes unstated.

Task: Reported concentration at 70 day for C#C[C@]1(COP(=O)(N[C@@H](Cc2ccccc2)C(=O)OC(CCCCCCCCCCC)CCCCCCCCCCC)Oc2ccccc2)O[C@@H](n2cnc3c(N)nc(F)nc32)C[C@@H]1O (single isomer, unassigned) [Example 26A] : what is it?
Result: 9.95

* * *

# experiment: EFdA Rat PK Studies (subcutaneous and intramuscular groups), plasma concentration by LC-MS/MS
# Assay type: in vivo, Wistar Han rats
# assay-conditions: male, Wistar Han, rat, plasma, sc, 20 mg/kg, 72 hr; SC 20 mg/kg; plasma; read-out: Assayed Concentrations of EFdA, Mean
endpoint: concentration at 72 h (ng/mL)
Write it as a number; the unit ng/mL goes unstated.

Task: Reported concentration at 72 h for C#C[C@]1(CO)O[C@@H](n2cnc3c(N)nc(F)nc32)C[C@@H]1O [EFdA] : what is it?
Result: 0.241

* * *

# experiment: in vivo
# assay-conditions: male, Wistar Han, rat, in vivo; day 1; single IM Example 2A 56 mg/kg; read-out: Mean concentration of Example 2A
endpoint: concentration at 1 day (ng/mL)
Write it as a number; the unit ng/mL goes unstated.

Task: Reported concentration at 1 day for C#C[C@]1(COP(=O)(N[C@@H](Cc2ccccc2)C(=O)OCCCCCCCCCCCCCCCC)Oc2ccccc2)O[C@@H](n2cnc3c(N)nc(F)nc32)C[C@@H]1O (single isomer, unassigned) [Example 2A] : what is it?
Result: 3.54

* * *

# experiment: in vivo
# assay-conditions: male, Wistar Han, rat, in vivo; day 84; single IM Example 43A 60 mg/kg; read-out: Mean concentration of Example 43A
endpoint: concentration at 84 day (ng/mL)
Write it as a number; the unit ng/mL goes unstated.

Task: Reported concentration at 84 day for C#C[C@]1(COP(=O)(N[C@@H](Cc2ccccc2)C(=O)OCCCCCCCCCCCCCCCCCCCC)Oc2ccccc2)O[C@@H](n2cnc3c(N)nc(F)nc32)C[C@@H]1O (single isomer, unassigned) [Example 43A] : what is it?
Result: 7.94

* * *

# experiment: EFdA Rat PK Studies (subcutaneous and intramuscular groups), plasma concentration by LC-MS/MS
# Assay type: in vivo, Wistar Han rats
# assay-conditions: male, Wistar Han, rat, plasma, sc, 20 mg/kg, 48 hr; SC 20 mg/kg; plasma; read-out: Assayed Concentrations of EFdA, Mean
# Excerpt: Protocol for EFdA Rat PK Studies Conducted at Charles River Laboratories, NY. A total of seven naïve male Wistar Han rats, 200-250 g, were received from Charles River Laboratories, Kingston, N.Y. All animals were received from the supplier equipped with a surgically-implanted jugular vein catheter (JVC) for blood sample collection. Following an acclimation period, the animals were assigned to the study based on acceptable health as determined by a staff veterinarian and catheter patency. […]
endpoint: concentration at 48 h (ng/mL)
Write it as a number; the unit ng/mL goes unstated.

Task: Reported concentration at 48 h for C#C[C@]1(CO)O[C@@H](n2cnc3c(N)nc(F)nc32)C[C@@H]1O [EFdA] : what is it?
Result: 0.68
